Consider the following compounds; for each one, report its MIC.
- Test system: Escherichia coli
- Measurement Notes: Antibacterial activity against Escherichia coli ATCC 35218 assessed as reduction in microbial growth incubated for 20 to 22 hrs by CLSI based analysis
- Assay type: functional
- Applied Conditions: time 20-22 hrs
One number for each entry, in mg/L.

Some entries whose results are on file:
CO[C@@H](CNC(=O)[C@H](NC(=O)[C@H](O)[C@H](C)O)[C@H](O)c1cncn1C)[C@H](O)[C@H](O)C(=O)N(C)[C@@H](Cc1ccccc1)C(=O)NCC(=O)N[C@H](C(=O)N[C@@H](CO)C(=O)N[C@H](C(=O)N[C@@H](C)C(=O)N[C@@H](CO)C(=O)O)C(C)(C)O)C(C)(C)O	8
CO[C@@H](CNC(=O)[C@H](NC(=O)[C@H](O)[C@H](C)O)[C@H](O)c1cncn1C)[C@H](O)[C@H](O)C(=O)N(C)[C@@H](Cc1ccccc1)C(=O)N[C@@H](C)C(=O)N[C@H](C(=O)N[C@@H](CO)C(=O)N[C@H](C(=O)N[C@@H](CC(C)C)C(=O)N[C@@H](CO)C(=O)O)C(C)(C)O)C(C)(C)O	8

Return reported MIC values for all items listed beneath this line.
1. CO[C@@H](CNC(=O)[C@H](NC(=O)[C@H](O)[C@H](C)O)[C@H](O)c1cncn1C)[C@H](O)[C@H](O)C(=O)N(C)[C@@H](Cc1ccccc1)C(=O)NCC(=O)N[C@H](C(=O)N[C@@H](CO)C(=O)N[C@H](C(=O)N[C@@H](CC(C)C)C(=O)O)C(C)(C)O)C(C)(C)O
2. CO[C@@H](CNC(=O)[C@H](NC(=O)[C@H](O)[C@H](C)O)[C@H](O)c1cncn1C)[C@H](O)[C@H](O)C(=O)N(C)[C@@H](Cc1ccccc1)C(=O)NCC(=O)N[C@H](C(=O)N[C@@H](CO)C(=O)N[C@H](C(=O)N[C@H](C(=O)N[C@@H](CO)C(=O)O)C(C)(C)C)C(C)(C)O)C(C)(C)O

[32, 2]

----------
- Measurement Notes: Ratio of AUC in kidney to plasma in Swiss mouse at 3 mg/kg, iv measured upto 24 hrs by LC-MS/MS analysis
- Assay type: ADME, organism-based
- Applied Conditions: read-out: Ratio AUC
Measured Metric: Kp at 24 h
One number for each entry.

Param item = CO[C@@H](CNC(=O)[C@H](NC(=O)[C@H](O)[C@H](C)O)[C@H](O)c1cncn1C)[C@H](O)[C@H](O)C(=O)N(C)[C@@H](Cc1ccccc1)C(=O)NCC(=O)N[C@H](C(=O)N[C@@H](CO)C(=O)N[C@H](C(=O)N[C@H](C(=O)N[C@@H](CC(=O)O)C(=O)N1CCC[C@H]1C(=O)NCc1cc(=O)c(O)cn1O)C(C)(C)C)C(C)(C)O)C(C)(C)O ; retrieve measured Kp at 24 h. 2.5

----------
- Measurement Notes: Metabolic stability in mouse lung assessed as parent compound remaining measured after 1 hrs by UPLC-MS analysis
- Assay type: ADME, tissue-based
- Applied Conditions: mouse lung, read-out: Stability
Measured Metric: remaining at 1 h (%)
Give bare numbers, in %.

CO[C@@H](CNC(=O)[C@H](NC(=O)[C@H](O)[C@H](C)O)[C@H](O)c1cncn1C)[C@H](O)[C@H](O)C(=O)N(C)[C@@H](Cc1ccc(F)cc1)C(=O)NCC(=O)N[C@H](C(=O)N[C@@H](CO)C(=O)N[C@H](C(=O)N[C@H](C(=O)N[C@@H](CO)C(=O)NCc1cccc(O)c1O)C(C)(C)C)C(C)(C)O)C(C)(C)O	0

Now for another entry.
So what's the measured remaining at 1 h for this one? CO[C@@H](CNC(=O)[C@H](NC(=O)[C@H](O)[C@H](C)O)[C@H](O)c1cncn1C)[C@H](O)[C@H](O)C(=O)N(C)[C@@H](Cc1ccccc1)C(=O)NCC(=O)N[C@H](C(=O)N[C@@H](CO)C(=O)N[C@H](C(=O)N[C@H](C(=O)N[C@@H](CO)C(=O)N[C@@H](CN)C(=O)NCc1cc(=O)c(O)cn1O)C(C)(C)C)C(C)(C)O)C(C)(C)O 87

Ref: ChEMBL document CHEMBL5356971
